Source: patent US20240158446A1

- system-name: GDP-bound KRAS wild-type protein (Homo sapiens)
- Sequence (P01116 whole entry): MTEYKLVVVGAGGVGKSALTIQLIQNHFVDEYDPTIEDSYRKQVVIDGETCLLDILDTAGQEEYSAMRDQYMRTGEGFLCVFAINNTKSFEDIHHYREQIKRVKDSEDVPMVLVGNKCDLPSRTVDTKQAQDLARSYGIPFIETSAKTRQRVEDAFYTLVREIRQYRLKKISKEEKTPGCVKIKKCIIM
- procedure-text: Binding to KRAS by surface plasmon resonance (SPR), Single Cycle Kinetics
- run-parameters: SPR, Single Cycle Kinetics, 1:1 binding model; GDP-bound KRAS wild-type protein; read-out: KRAS KD
recorded-metric: Kd (nM)
Give the number; nM is assumed, so skip it.

compound	reading-unit	Kd
CCO[C@@H]1C[C@H]2C(=O)NC3(CCCC3)C(=O)N(C)[C@@H](C3CCCC3)C(=O)N(C)[C@H](C(=O)N(C)CC)CC(=O)N(C)[C@@H](CC(C)C)C(=O)N[C@@H]([C@@H](C)CC)C(=O)N(C)CC(=O)N(C)[C@H]3C/C=C\CCN(C3=O)[C@@H](Cc3ccc(C(F)(F)F)cc3)C(=O)N(C)CC(=O)N[C@@H](CCc3cc(F)c(C(F)(F)F)c(F)c3)C(=O)N2C1 [PP1574]	nM	0.15

Consider the additional compound presented here.
Asked: // query Kd value for entry CCO[C@@H]1C[C@H]2C(=O)NC3(CCCC3)C(=O)N(C)[C@@H](C3CCCC3)C(=O)N(C)[C@H](C(=O)N(C)C)CC(=O)N(C)[C@@H](CC)C(=O)N[C@@H]([C@@H](C)CC)C(=O)N(C)CC(=O)N(C)[C@H]3CC[C@@H](C)CN(C3=O)[C@@H](Cc3ccc(C(F)(F)F)cc3)C(=O)N(C)CC(=O)N[C@@H](CCc3ccc(C(F)(F)F)c(Cl)c3)C(=O)N2C1 [PP1376]
Given back: 0.037
